Measured Target: T1, Peptide 4: Biotin-AGGGGSGGGGSGGGGSAAA-Tyr-acid (N-terminal biotin; C-terminal acid)
T1 construct: control peptide without PC
T1 peptide: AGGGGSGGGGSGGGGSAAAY
Experiment: scFv ELISA
Metric: OD450

PcOxP_DB01_G09 (scFv, V domains shown, scFv in periplasmic extract) VH: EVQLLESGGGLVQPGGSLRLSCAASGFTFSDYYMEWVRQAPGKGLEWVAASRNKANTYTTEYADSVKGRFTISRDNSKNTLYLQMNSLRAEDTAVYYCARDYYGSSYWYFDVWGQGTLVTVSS VL: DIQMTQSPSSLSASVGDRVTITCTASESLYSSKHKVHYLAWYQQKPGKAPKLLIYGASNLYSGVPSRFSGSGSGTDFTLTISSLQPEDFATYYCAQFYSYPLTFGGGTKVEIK : 0.06 OD450
PcOxP_DB03_B02 (scFv, V domains shown, scFv in periplasmic extract) VH: EVQLLESGGGLVQPGGSLRLSCAASGFAFSDFYMEWVRQAPGKGLEWVAASRNKANDYTTEYADSVKGRFTISRDNSKNTLYLQMNSLRAEDTAVYYCARDYYGSSYWYFDVWGQGTLVTVSS VL: DIQMTQSPSSLSASVGDRVTITCTASESLYSSKHKVHYLAWYQQKPGKAPKLLIYGASNRYDGVPSRFSGSGSGTDFTLTISSLQPEDFATYYCAQFYEYPLTFGGGTKVEIK : 0.05 OD450

Read the next record carefully.
For this binder ( PcOxP_DB02_H03 (scFv, V domains shown, scFv in periplasmic extract) VH: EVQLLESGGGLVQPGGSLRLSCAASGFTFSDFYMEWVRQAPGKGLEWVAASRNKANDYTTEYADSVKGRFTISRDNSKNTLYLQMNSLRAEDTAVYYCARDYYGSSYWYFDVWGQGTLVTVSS VL: DIQMTQSPSSLSASVGDRVTITCTASESISSSKHKVHYLAWYQQKPGKAPKLLIYGASNLYSGVPSRFSGSGSGTDFTLTISSLQPEDFATYYCAHFYSYPLTFGGGTKVEIK ), measured OD450 is 0.05 OD450
